What pIC50 was measured for each of the following?
Molecular target: BCR-NTRK2 BaF3 cells (Homo sapiens, UniProt Q16620)
Construct: fused on or other part: P11274 (Breakpoint cluster region protein)
Sequence (Q16620 538-807): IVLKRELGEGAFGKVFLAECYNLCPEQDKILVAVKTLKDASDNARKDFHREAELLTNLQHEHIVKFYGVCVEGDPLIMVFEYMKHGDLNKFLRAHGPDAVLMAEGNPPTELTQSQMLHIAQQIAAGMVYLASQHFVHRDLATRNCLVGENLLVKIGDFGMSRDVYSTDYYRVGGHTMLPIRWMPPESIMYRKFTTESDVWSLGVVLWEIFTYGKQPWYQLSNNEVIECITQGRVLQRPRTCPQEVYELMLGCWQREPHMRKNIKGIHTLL
Test: BaF3 BCR-NTRK2 cell proliferation assay (ATPlite)
Settings: read-out: Inhibition of Cell Proliferation IC50, BCR/BaF3 TrkB
pIC50: −log10 of the molar value.

Worked cases, pIC50 given:
{"columns": ["Molecule", "Target entity", "Reported metric", "Observed measurement"],
 "data": [
  ["COc1ncnc2[nH]cc(Cc3ccc(Nc4ccc(C)nc4)nc3F)c12 [Compound P-4010]", "BCR-NTRK2 BaF3 cells (Homo sapiens, UniProt Q16620)", "pIC50", "> 7.00"],
  ["CCOc1ccc(Nc2ccc(Cc3c[nH]c4ncnc(C5CC5)c34)c(F)n2)cn1 [Compound P-4026]", "BCR-NTRK2 BaF3 cells (Homo sapiens, UniProt Q16620)", "pIC50", "> 8.00"],
  ["CCc1ccc(Nc2ccc(C(=O)c3c[nH]c4ncnc(C5CC5)c34)c(F)n2)cn1 [Compound P-4029]", "BCR-NTRK2 BaF3 cells (Homo sapiens, UniProt Q16620)", "pIC50", "> 8.00"]
]}

stdin: Item: CCc1ccc(Nc2ccc(C(=O)c3c[nH]c4ncnc(N[C@@H](C)c5ccc(F)cc5)c34)c(F)n2)cn1 [Compound P-4097] Test system: BCR-NTRK2 BaF3 cells (Homo sapiens, UniProt Q16620) Read-out: pIC50 Value: ?
stdout: > 7.00

###

Target: BCR-KIT BaF3 cells (Homo sapiens)
Construct: fused on or other part: P11274 (Breakpoint cluster region protein)
Sequence (P10721 589-937): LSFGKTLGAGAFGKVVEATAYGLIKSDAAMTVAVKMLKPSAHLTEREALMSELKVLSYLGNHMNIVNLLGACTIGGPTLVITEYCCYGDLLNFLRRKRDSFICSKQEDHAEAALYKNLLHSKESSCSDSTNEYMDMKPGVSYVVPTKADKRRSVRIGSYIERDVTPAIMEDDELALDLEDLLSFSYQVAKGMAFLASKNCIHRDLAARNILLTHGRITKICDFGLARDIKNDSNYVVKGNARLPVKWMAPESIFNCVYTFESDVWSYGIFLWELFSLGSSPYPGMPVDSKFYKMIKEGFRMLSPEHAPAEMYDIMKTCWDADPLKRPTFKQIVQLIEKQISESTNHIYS
Experiment: BaF3 BCR-KIT cell proliferation assay (ATPlite)
Conditions: read-out: Inhibition of Cell Proliferation IC50, BCR/BaF3 Kit
Reported metric: IC50

Take a look at these entries with their results.
{"columns": ["Molecule", "IC50"],
 "data": [
  ["CCc1ccc(Nc2ccc(C(=O)c3c[nH]c4ncnc(NCC(C)(C)O)c34)c(F)n2)cn1 [Compound P-4064]", "< 100 nM"],
  ["Cc1cnc2[nH]cc(Cc3ccc(NC4CCCCC4)nc3F)c2c1 [Compound P-3008]", "> 1000 nM"],
  ["Cc1cncc(Nc2ccc(C(=O)c3c[nH]c4ncnc(C5CC5)c34)c(F)n2)c1 [Compound P-4039]", "< 1000 nM"]
]}

Now for another entry.
stdin: Lab request: please report IC50 under test system BCR-KIT BaF3 cells (Homo sapiens) for CCn1cc(Nc2ccc(Cc3c[nH]c4ncnc(C)c34)c(F)n2)cn1 [Compound P-4013]
stdout: < 1000 nM

###

Exercise: for every item that follows, state its recorded pIC50.
Biological target: BCR-NTRK1 BaF3 cells (Homo sapiens)
Construct: fused on or other part: P11274 (Breakpoint cluster region protein)
Sequence (P04629 510-781): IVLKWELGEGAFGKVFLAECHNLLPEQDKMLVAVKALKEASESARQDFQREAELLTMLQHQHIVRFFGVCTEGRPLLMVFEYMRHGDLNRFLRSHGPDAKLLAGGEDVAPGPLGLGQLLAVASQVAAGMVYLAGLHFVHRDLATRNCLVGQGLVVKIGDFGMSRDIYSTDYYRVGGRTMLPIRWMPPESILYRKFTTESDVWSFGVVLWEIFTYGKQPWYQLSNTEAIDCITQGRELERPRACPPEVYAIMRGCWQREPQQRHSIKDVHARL
Assay: BaF3 BCR-NTRK1 cell proliferation assay (ATPlite)
Assay type: cell-based
Settings: read-out: Inhibition of Cell Proliferation IC50, BCR/BaF3 TrkA
pIC50: −log10 of the molar value.

Answered examples (7):
{"columns": ["Compound", "Target entity", "Reported metric", "Observed measurement"],
 "data": [
  ["CCCNc1ncnc2[nH]cc(C(=O)c3ccc(Nc4ccc(CC)nc4)nc3F)c12", "BCR-NTRK1 BaF3 cells (Homo sapiens)", "pIC50", "> 8.00"],
  ["COc1cc(Nc2ncc(Cc3c[nH]c4ncc(C)cc34)cn2)ccc1F", "BCR-NTRK1 BaF3 cells (Homo sapiens)", "pIC50", "> 6.00"],
  ["COc1cncc(Nc2ccc(C(=O)c3c[nH]c4ncnc(NCC(F)(F)F)c34)c(F)n2)c1", "BCR-NTRK1 BaF3 cells (Homo sapiens)", "pIC50", "> 6.00"],
  ["CCc1ccc(Nc2ccc(C(=O)c3c[nH]c4ncc(C)cc34)c(F)n2)cn1", "BCR-NTRK1 BaF3 cells (Homo sapiens)", "pIC50", "> 8.00"],
  ["O=C(c1ccc(NC2CCC(F)(F)CC2)nc1)c1c[nH]c2ncnc(NCC(F)(F)F)c12", "BCR-NTRK1 BaF3 cells (Homo sapiens)", "pIC50", "> 6.00"],
  ["COc1ccc(Nc2ccc(C(=O)c3c[nH]c4ncnc(NCC5CC5)c34)c(F)n2)cn1", "BCR-NTRK1 BaF3 cells (Homo sapiens)", "pIC50", "> 8.00"],
  ["CCC(C)Nc1ncnc2[nH]cc(C(=O)c3ccc(Nc4ccc(OC)nc4)nc3F)c12 (centres unmarked)", "BCR-NTRK1 BaF3 cells (Homo sapiens)", "pIC50", "> 8.00"]
]}

Lab note: next compound to report on.
stdin: Look up pIC50: Cc1ccc(Nc2ccc(C(=O)c3c[nH]c4ncnc(NCC5CC5)c34)c(F)n2)cn1
stdout: > 7.00

###

Target: BCR-KIT BaF3 cells (Homo sapiens)
Construct: fused on or other part: P11274 (Breakpoint cluster region protein)
Test: BaF3 BCR-KIT cell proliferation assay (ATPlite)
Conditions: read-out: Inhibition of Cell Proliferation IC50, BCR/BaF3 Kit
For each of the compounds below, state its IC50.

{"columns": ["Smiles input", "IC50"],
 "data": [
  ["CC(C)Nc1ncnc2[nH]cc(C(=O)c3ccc(NC4CCCCC4)nc3F)c12", "< 1000 nM"]
]}

Hey, quick one: what's IC50 for each of these?
1. CCOc1ccc(Nc2ccc(Cc3c[nH]c4ncnc(C5CC5)c34)c(F)n2)cn1
2. Fc1ccccc1Nc1ncc(Cc2c[nH]c3ncc(Cl)cc23)cn1
3. COc1cncc(Nc2ccc(C(=O)c3c[nH]c4ncnc(NCC(F)(F)F)c34)c(F)n2)c1
4. Fc1nc(Nc2ccc(C3CC3)nc2)ccc1Cc1c[nH]c2ncnc(NCC(F)(F)F)c12
5. CCc1ccc(Nc2ccc(C(=O)c3c[nH]c4ncnc(NCCCOC)c34)c(F)n2)cn1
6. Cc1ccc(Nc2ccc(C(=O)c3c[nH]c4ncnc(NCC(F)(F)F)c34)c(F)n2)cn1
7. CCc1ccc(Nc2ccc(C(=O)c3c[nH]c4ncnc(N)c34)c(F)n2)cn1

stdout:
1: < 1000 nM; 2: > 1000 nM; 3: > 1000 nM; 4: > 1000 nM; 5: < 100 nM; 6: > 1000 nM; 7: < 100 nM

###

Target: CYP1A2 (Homo sapiens, UniProt P05177)
Sequence (P05177 1-516): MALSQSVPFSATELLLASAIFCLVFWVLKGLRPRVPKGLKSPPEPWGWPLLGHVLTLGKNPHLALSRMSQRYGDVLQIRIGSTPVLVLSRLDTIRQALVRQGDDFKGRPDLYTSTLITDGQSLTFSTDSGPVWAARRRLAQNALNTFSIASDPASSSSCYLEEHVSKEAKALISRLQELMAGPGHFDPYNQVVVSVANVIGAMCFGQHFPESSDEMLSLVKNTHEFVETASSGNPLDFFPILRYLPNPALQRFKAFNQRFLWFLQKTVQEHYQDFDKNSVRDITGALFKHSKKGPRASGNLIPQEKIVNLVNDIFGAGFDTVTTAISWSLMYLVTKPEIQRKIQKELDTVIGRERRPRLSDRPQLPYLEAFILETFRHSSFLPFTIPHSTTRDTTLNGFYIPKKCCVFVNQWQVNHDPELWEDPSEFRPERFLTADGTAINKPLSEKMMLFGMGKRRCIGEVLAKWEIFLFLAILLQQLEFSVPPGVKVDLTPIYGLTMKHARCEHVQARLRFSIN
Reported metric: IC50

The cases that follow already have their IC50 on record.
{"columns": ["Molecule", "IC50"],
 "data": [
  ["COc1cncc(Nc2ccc(C(=O)c3c[nH]c4ncnc(NC5CC5)c34)c(F)n2)c1 [Compound P-4107]", "< 5 µM"],
  ["CCc1ccc(Nc2ccc(C(=O)c3c[nH]c4ncnc(NC5CCCC5)c34)c(F)n2)cn1 [Compound P-4099]", "< 5 µM"],
  ["COc1ccc(Nc2ccc(C(=O)c3c[nH]c4ncnc(NC5CCC5)c34)c(F)n2)cn1 [Compound P-4076]", "> 10 µM"],
  ["CCc1ccc(Nc2ccc(C(=O)c3c[nH]c4ncnc(NC)c34)c(F)n2)cn1 [Compound P-4124]", "< 5 µM"]
]}

State the recorded IC50 for every item in the following list.
1. Fc1nc(NC2CCC(F)(F)CC2)ccc1Cc1c[nH]c2ncnc(NCC(F)(F)F)c12 [Compound P-4128]
2. Cc1cnc2[nH]cc(Cc3ccc(Nc4ccc(C5CC5)nc4)nc3F)c2c1 [Compound P-3050]
3. CCOc1ncnc2[nH]cc(Cc3ccc(Nc4ccc(C)nc4)nc3F)c12 [Compound P-4017]
4. CCc1ccc(Nc2ccc(Cc3c[nH]c4ncc(C)cc34)c(F)n2)cn1 [Compound P-3048]
5. Fc1cc(Cc2c[nH]c3ncnc(NC4CC4)c23)cnc1NC1CCC(F)(F)CC1 [Compound P-4127]
6. COc1ccc(Nc2ccc(C(=O)c3c[nH]c4ncnc(NCc5ccc(C(F)(F)F)nc5)c34)c(F)n2)cn1 [Compound P-4071]
7. COc1ccc(Nc2ccc(C(=O)c3c[nH]c4ncnc(NC5CCC(F)(F)CC5)c34)c(F)n2)cn1 [Compound P-4056]
8. COc1ccc(Nc2ccc(C(=O)c3c[nH]c4ncnc(NC5CCCC5)c34)c(F)n2)cn1 [Compound P-4075]

stdout:
1. > 10 µM
2. > 10 µM
3. > 10 µM
4. > 10 µM
5. > 10 µM
6. > 10 µM
7. > 10 µM
8. > 10 µM

Provide IC50 values for the following items, in order.
1. CNc1ncnc2[nH]cc(C(=O)c3ccc(Nc4ccc(C5CC5)nc4)nc3F)c12 [Compound P-4094]
2. CCc1ccc(Nc2ccc(Cc3c[nH]c4ncnc(C)c34)c(F)n2)cn1 [Compound P-4009]
3. CCc1ccc(Nc2ccc(Cc3c[nH]c4ncnc(C5CC5)c34)c(F)n2)cn1 [Compound P-4028]

stdout:
< 5 µM
> 10 µM
> 10 µM

Your task in this section: give IC50 for each listed record.
1. COc1ncnc2[nH]cc(Cc3ccc(Nc4ccc(C5CC5)nc4)nc3F)c12 [Compound P-4004]
2. CCc1ccc(Nc2ccc(C(=O)c3c[nH]c4ncnc(NC(C)C)c34)c(F)n2)cn1 [Compound P-4117]
3. CC(C)(O)CNc1ncnc2[nH]cc(C(=O)c3ccc(Nc4ccc(C5CC5)nc4)nc3F)c12 [Compound P-4049]

stdout:
1. > 10 µM
2. 5 to 10 µM
3. > 10 µM

Numbers sourced from patent US8901118B2.
